# target-under-test: T1, monkey IL-25 expressed with a C-terminal myc-myc-hexahistidine tag (M. fascicularis (cynomolgus monkey))
# T1 construct: also called monkey IL-25-MMH; MfIL-25-MMH
# T1 chain: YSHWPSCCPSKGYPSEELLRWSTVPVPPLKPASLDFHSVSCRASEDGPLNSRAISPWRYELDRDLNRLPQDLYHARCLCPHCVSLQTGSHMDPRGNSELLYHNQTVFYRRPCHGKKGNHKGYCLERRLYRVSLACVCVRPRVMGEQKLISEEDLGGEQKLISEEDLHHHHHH
# assay: SPR Biacore, captured mAb, 25°C;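 also: Real-time surface plasmon resonance on a Biacore 4000, with IL-25-MMH binding to purified anti-IL-25 antibodies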
measurement-type: t½ (h)
Just the number please, in h, no unit attached.

Use these answered entries as a reference point.
binder="H4H10901P (antibody, human IgG4, V domains shown) VH: QLQLQESGPGLVRPSETLSLTCSVSSGSIRSSNYYWGWIRQPPGKGLEWIGNIYYSGNTFYNPSLKGRVTISVDTSKNQFSLKLSSVTATDTAVYYCARQGYSDYELNWFDPWGQGTLVTVSS VL: DIVMTQSPDSLVLSLGERATFNCKSSQSVLDSSNNKNYLAWYQQKPGQPPKLLIYWASTRESGVPDRFSGSGSGTDFSLTISSLQAEDVALYYCQQFYNSPWTFGQGTKVEIK" measurement_type=t½ unit_of_measure=h value_observed=6.28
binder="H4H10871P (antibody, human IgG4, V domains shown) VH: QVQLVQSGAEVMKPGASVKVSCKSSDFAFTTYGISWVRQAPGQGLEWMGWISAYNGNTNYEQRFQGRITMTTDTSTTTVYMELRSLRSDDTAVYYCARDPDYCSSNTCSDAFDLWGQGTMVTVSS VL: DIQMTQSPSSLSASVRDRVTITCRASQGITNYLAWYQQKPGKVPKVLIYAASTLQSGVPSRFSGSGSGTEFTLAISSLQPEDVATYFCQQYGSAPWTFGQGTKVEIK" measurement_type=t½ unit_of_measure=h value_observed=3.18
binder="H4H10907P (antibody, human IgG4, V domains shown) VH: EVQLVESGGGLVQPGGSLRLSCAASGFTFSNYDIHWVRQVPGKGLEWISTIGSAGDTFYPGSVKGRFTISRENAKNSLYLQMNSLRAGDSAVYYCARGDNWNYVSWFFDLWGRGTLVTVSS VL: DIQLTQSPSFLSTSVGDRVTITCWASQDISSFLAWYQQKPGKAPKLLIYAASVLQSGVPSRFSGSGSGTEFTLTISSLQPEDFATYYCQQVNSYPITFGQGTRLEIK" measurement_type=t½ unit_of_measure=h value_observed=2.85

Recorded t½ (binder H4H10863P (antibody, human IgG4, V domains shown) VH: QVQLVQSGAEVKKPGASVKVSCKASGYTFSSYGISWVRQAPGQGLEWMGWISAYNDNTQYAQKFQGRVTMTTDTSTSTAYMELRSLRSDDTAVYYCARVPLQWFGESFDHWGQGTLVTVSS VL: DIQMTQSPSSLSASVGDRVTITCRASQDINNYLNWFQQKPGKAPKLLIFSTSSLQSGVPSRFSGSGSGTDFTLTISSLQSEDFATYYCQQTFITPLTFGGGTKVEIK ): 2.82
